Test system: V. cholerae SAD30
Construct: SAD30
Assay: microbe, parasite or virus in culture
Design: species or system bacterial strain; broth microdilution MIC, OD600, lowest concentration without visible bacterial growth
Conditions: Vibrio cholerae, SAD30, read-out: MIC VC
measured.metric: MIC (µM)
Field format: number, assumed µM, no unit text.

chemical.smiles: Cc1cccc(-n2cc(C(=O)CCl)nn2)c1
MIC / µM: 25
//
chemical.smiles: O=C(CCl)c1cn(-c2ccc(F)cc2)nn1
MIC / µM: 10
//
chemical.smiles: Cn1cc(C(=O)CCl)nn1
MIC / µM: 50

// moving on: another record for MIC
Short answer for O=C(CCl)c1cn(-c2cccc(C(F)(F)F)c2)nn1 : MIC was 100

* * *

Listing of entries alongside the reported MIC.
Test system: S. flexneri M90T
Construct: M90T
Assay: microbe, parasite or virus in culture
Set-up: species or system bacterial strain; broth microdilution MIC, OD600, lowest concentration without visible bacterial growth
Conditions: Shigella flexneri, read-out: MIC SF
Protocol: MIC measurement. The minimum inhibitory concentrations (MICs) of compounds were measured using the broth microdilution method.1 One stab using 10 µL tip from bacteria glycerol stock was inoculated into 5 mL of LB supplemented with selection antibiotics (Kanamycin for Keio collections and chloramphenicol for ASKA collections), and the culture was incubated at 37 °C with shaking overnight. […] MIC was determined as the lowest concentration for which no bacterial growth was observed. […]
Field format: number, assumed µM, no unit text.

Short answer for Cc1cccc(-n2cc(C(=O)CCl)nn2)c1 [10-L07] : MIC was 5

Short answer for O=C(CCl)c1cn(-c2ccc(F)cc2)nn1 [10-F05] : MIC was 2.5

Short answer for O=C(CCl)c1cn(-c2cccc(C(F)(F)F)c2)nn1 [10-C09] : MIC was 25

Short answer for Cn1cc(C(=O)CCl)nn1 [10-M19] : MIC was 50
